study.system: human GLP-1 receptor (human, UniProt P43220 24-463)
assay.overview: cell-based or functional assay
Starred links: 1 amine or outer side, 2 acyl side, 3 side chain; linkers in the order of their positions; H or OH if unused. Non-standard residues stand in square brackets, D forms with d. Groups on a side chain read outwards from the residue. *: point of attachment. C20 diacid = O=C(O)CCCCCCCCCCCCCCCCCCC(=O)*; C16 diacid = O=C(O)CCCCCCCCCCCCCCC(=O)*; γGlu = O=C(O)[C@H](CCC(=O)[*:2])N[*:1]; AEEA = NCCOCCOCC(=O)O; Aib = CC(C)(N)C(=O)O
experimental.readout: Human GLP-1R potency [EC50 (pM)]

binder	unit.abbrev	recorded.value
Compound 0632 (peptide) peptide: H[Aib]EGTFTSDVSK([γGlu-γGlu-γGlu-γGlu-C20 diacid])YLEEQAAREFIEWLVRGAAEASELSTAALGRLSAELHELATLPRTETGSGSP-NH2	pM	18.8
Compound 0638 (peptide) peptide: H[Aib]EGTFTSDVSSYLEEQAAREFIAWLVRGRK([AEEA-AEEA-γGlu-C20 diacid])GGGGSGGGEASELSTAALGRLSAELHELATLPRTETGSGSP-NH2	pM	4.6
Compound 0509 (peptide) peptide: H[Aib]EGTFTSDVSSYLEEQAARK([AEEA-AEEA-γGlu-C16 diacid])FIAWLVRGRGGGGGEASELSTAALGRLSAELHK([AEEA-AEEA-γGlu-C16 diacid])LATLPRTETGSGSP-NH2	pM	7.1
Compound 0260 (peptide) peptide: H[Aib]EGTFTSDK([AEEA-AEEA-γGlu-C16 diacid])SSYLEEQAAREFIAWLVRGRGGGGGEASELSTAALGRLSAELHELK([AEEA-AEEA-γGlu-C16 diacid])TLPRTETGSGSP-NH2	pM	11.9
